Recorded IC50 values for a group of molecules are listed next.
system: human IDO1 (Homo sapiens, UniProt P14902)
Sequence (P14902 whole entry): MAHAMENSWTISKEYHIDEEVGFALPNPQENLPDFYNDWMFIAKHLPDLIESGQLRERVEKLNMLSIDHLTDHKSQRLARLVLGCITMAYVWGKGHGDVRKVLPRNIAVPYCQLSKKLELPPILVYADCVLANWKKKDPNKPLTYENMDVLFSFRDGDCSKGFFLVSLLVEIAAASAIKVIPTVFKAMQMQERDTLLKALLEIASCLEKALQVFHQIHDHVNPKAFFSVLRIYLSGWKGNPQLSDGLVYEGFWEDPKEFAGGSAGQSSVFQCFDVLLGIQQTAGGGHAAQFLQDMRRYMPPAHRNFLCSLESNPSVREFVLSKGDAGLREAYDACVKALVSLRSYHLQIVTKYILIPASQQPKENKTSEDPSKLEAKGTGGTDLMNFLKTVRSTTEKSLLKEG
experiment_summary: Assessment of human IDO-1 inhibitory activity in Hela cells (Interferon-gamma stimulated HeLa cells, Ehrlich reagent, absorbance 490 nm)
Type: cell-based
Design: endogenous in cells; host or cells: HeLa cells stimulated with interferon-gamma
experimental_setup: Hela Human IDO-1 cellular assay
readout_kind: IC50

molecule	readout_kind	result
CCC1COCCN1c1ccc([C@H](COC)CC(=O)O)cc1Nc1ccc(C#N)cn1 (single isomer, unassigned)	IC50	> 50 nM
COCCN(c1ccc(C(COC)CC(=O)O)cc1Nc1ccc(C#N)cc1)C1CCOCC1 (single isomer, unassigned)	IC50	< 50 nM
CCCN(c1ccc(C(C)(C)CC(=O)O)cc1NC(=O)Nc1ccc(C)cc1)C1CCOCC1	IC50	< 50 nM
CCN(c1ccc(C(CC(=O)O)C2CC2)cc1Nc1ccc(C#N)cc1)C1CCOCC1 (single isomer, unassigned)	IC50	< 5 nM
CC[C@H](CC(=O)O)c1ccc(N(CC)C2CCOCC2)c(Nc2cnc(N(C)C)nc2)c1 (single isomer, unassigned)	IC50	< 50 nM
Cc1ccc(NC(=O)Nc2cc(C(CC(=O)O)C3CC3)ccc2N2C[C@@H](C)O[C@@H](C)C2)cc1 (single isomer, unassigned) [Example 251 Enantiomer 1]	IC50	> 50 nM

====

system: human IDO1 (Homo sapiens, UniProt P14902)
experiment_summary: Assessment of human IDO-1 inhibitory activity in HEK cells (human IDO1/HEK293 cells, kynurenine read-out with Ehrlich reagent, absorbance 490 nm)
Assay type: cell-based
Parameters: expressed in transfected cells
experimental_setup: HEK Human IDO-1 cellular assay
pIC50: −log10 of the molar value.
readout_kind: pIC50

> print(dat)
                                    compound  result
 1  CCN(c1ccc([C@@H](COC)CC(=O)O)cc1NC(=O)Nc1cc(C)on1)C1CCOCC1 (single isomer, unassigned) [Example 428]  < 7.30
 2  CC(CC(=O)O)c1ccc(N2CCC[C@H]2C(C)(C)O)c(Nc2ccc(Cl)cc2)c1 (single isomer, unassigned) [Example 804]  > 7.30
 3  CC[C@@H](CC(=O)O)c1ccc(N(CC)C2CCCCC2)c(Nc2ccc(C#N)cc2)c1 (single isomer, unassigned) [Example 283]  > 8.30
 4  CCC(CC(=O)O)c1cc(NC(=O)Nc2ccc3c(c2)OCO3)c(N(CC(C)C)C2CCCCC2)cc1F (racemic) [Example 1110]  > 8.30
 5  COc1ncc(Nc2cc(C(C)CC(=O)O)ccc2N(CC(C)(C)O)C2CCOCC2)cn1 (single isomer, unassigned) [Example 192]  < 7.30
 6  COCC(CC(=O)O)c1cc(F)c(N(CC(C)C)C2CCCCC2)c(NC(=O)Nc2cc(C)on2)c1 (single isomer, unassigned) [Example 1167]  > 8.30
 7  CC[C@@H](CC(=O)O)c1ccc(N(CC)C2CCOCC2)c(Nc2ccn3nc(C)c(F)c3c2)c1 (single isomer, unassigned) [Example 470]  > 7.30
 8  CC[C@H](CC(=O)O)c1ccc(N(CC)C2CCOCC2)c(NC(=O)Nc2ccc(OC)cc2F)c1 (single isomer, unassigned) [Example 530]  > 8.30
 9  CCN(c1ccc(C(C)(C)CC(=O)O)cc1NC(=O)Nc1ccc(C)cc1)C1CCC(C)(O)CC1 (stereo not shown) [Example 5]  > 7.30
10  Cc1cc(NC(=O)Nc2cc(C(CC(=O)O)C3CC3)ccc2N(CC(C)C)C2CCOCC2)no1 (racemic) [Example 1200]  > 7.30
11  CCC(CC(=O)O)c1ccc(N(CC)C2CCOCC2)c(NC(=O)Nc2ccc(C)cc2)c1 (single isomer, unassigned) [Example 487 Enantiomer 1]  > 8.30
12  CCOc1ccc(NC(=O)Nc2cc(C(CC)CC(=O)O)c(F)cc2N(CC(C)C)C2CCCCC2)c(F)c1 (racemic) [Example 1116]  > 8.30
13  CC[C@@H](CC(=O)O)c1ccc(N(CC)C2CCOCC2)c(NC(=O)Nc2ccc(Cl)nc2)c1 (single isomer, unassigned) [Example 495]  < 7.30

====

system: human IDO1 (Homo sapiens)
experiment_summary: Assessment of human IDO-1 inhibitory activity in Hela cells (Interferon-gamma stimulated HeLa cells, Ehrlich reagent, absorbance 490 nm)
Assay type: cell-based
Design: endogenous in cells; host or cells: HeLa cells stimulated with interferon-gamma
experimental_setup: Hela Human IDO-1 cellular assay
Recorded IC50 values for a group of compounds are listed next.
readout_kind: IC50

> print(dat)
                                   compound                     system   result
1  C[C@@H]1CN(c2ccc(C(CC(=O)O)C3CC3)cc2Nc2ccc(C#N)cc2)C[C@H](C)O1 (single isomer, unassigned) [Example 247]  human IDO1 (Homo sapiens)  > 50 nM
2  CCN(c1ccc(C(CC)(CC)CC(=O)O)cc1NC(=O)Nc1ccc(Cl)cc1F)C1CCOCC1 [Example 32]  human IDO1 (Homo sapiens)   < 5 nM
3  CCOc1ncc(Nc2cc(C(CC)CC(=O)O)ccc2N2CCNCC2)cn1 (single isomer, unassigned) [Example 672]  human IDO1 (Homo sapiens)  > 50 nM
4  CCOc1ncc(Nc2cc(C3(CC(=O)O)CCOCC3)ccc2N(CC)C2CCOCC2)cn1 [Example 153]  human IDO1 (Homo sapiens)  > 50 nM
5  CCCN(c1ccc(C(C)(C)CC(=O)O)cc1Nc1ccc(C#N)cc1)C1CCS(=O)(=O)CC1 [Example 187]  human IDO1 (Homo sapiens)  < 50 nM
6  CCOc1ncc(Nc2cc([C@@H](COC)CC(=O)O)ccc2N2CCOCC2CC)cn1 (single isomer, unassigned) [Example 1285]  human IDO1 (Homo sapiens)  > 50 nM
7  CCCN(c1ccc(C(CC)CC(=O)O)cc1Nc1cnc(OCC)nc1)C1CCS(=O)(=O)CC1 (single isomer, unassigned) [Example 13 Enantiomer 1]  human IDO1 (Homo sapiens)  < 50 nM

====

Recorded IC50 values for a group of compounds are listed next.
system: human IDO1 (Homo sapiens, UniProt P14902)
experiment_summary: Assessment of human IDO-1 inhibitory activity in Hela cells (Interferon-gamma stimulated HeLa cells, Ehrlich reagent, absorbance 490 nm)
Assay type: cell-based
Parameters: endogenous in cells; host or cells: HeLa cells stimulated with interferon-gamma
experimental_setup: Hela Human IDO-1 cellular assay
readout_kind: IC50

> print(dat)
                                   compound                                    system  readout.kind   result
1  CCC(CC(=O)O)c1ccc(N2CC(O)(c3ccc(F)cc3)C2)c(Nc2ccc(Cl)cc2)c1 (single isomer, unassigned) [Example 1253 E2]  human IDO1 (Homo sapiens, UniProt P14902)          IC50   < 5 nM
2  CCC(CC(=O)O)c1ccc(N2C[C@@H]3C[C@H]2CN3C(=O)OC(C)(C)C)c(Nc2ccccc2)c1 (single isomer, unassigned)  human IDO1 (Homo sapiens, UniProt P14902)          IC50   < 5 nM
3  CCC(CC(=O)O)c1cc(F)c(N(CC)C2CCOCC2)c(Nc2cnc(OC)nc2)c1 (single isomer, unassigned) [Example 140]  human IDO1 (Homo sapiens, UniProt P14902)          IC50   < 5 nM
4  CCN(c1c(F)cc(C(COC)CC(=O)O)cc1Nc1ccc(C#N)cc1)C1CCOCC1 (single isomer, unassigned) [Example 916]  human IDO1 (Homo sapiens, UniProt P14902)          IC50   < 5 nM
5  COCC(CC(=O)O)c1ccc(N2CCOC[C@@H]2C(C)C)c(Nc2ccc(Cl)cc2)c1 (single isomer, unassigned) [Example 934]  human IDO1 (Homo sapiens, UniProt P14902)          IC50  > 50 nM
6  CCN(c1ccc([C@@H](CC(=O)O)C(F)(F)F)cc1NC(=O)Nc1ccc(C)cc1)C1CCOCC1 (single isomer, unassigned)  human IDO1 (Homo sapiens, UniProt P14902)          IC50  < 50 nM

====

system: human IDO1 (Homo sapiens, UniProt P14902)
experiment_summary: Assessment of human IDO-1 inhibitory activity in HEK cells (human IDO1/HEK293 cells, kynurenine read-out with Ehrlich reagent, absorbance 490 nm)
Type: cell-based
Parameters: expressed in transfected cells
experimental_setup: HEK Human IDO-1 cellular assay
Procedure: Exemplary compounds were tested for inhibition of IDO activity. Assessment of Human IDO-1 Inhibitory Activity in HEK Cells HEK293 cells were transfected with a pCDNA-based mammalian expression vector harboring human IDO1 cDNA (NM 002164.2) by electroporation. […] The compound treatments were stopped by adding trichloroacetic acid (Sigma-Aldrich) to a final concentration at 0.2%. […] The absorbance at 490 nm was measured on Envision plate reader. […]
pIC50: −log10 of the molar value.
Recorded pIC50 values for a group of compounds are listed next.
readout_kind: pIC50

> print(dat)
                                   compound  result
1  CC[C@H](CC(=O)O)c1ccc(N(CC(C)(C)O)C2CCOCC2)c(Nc2ccc(Cl)cc2)c1 (single isomer, unassigned) [Example 203]  > 8.30
2  CCOc1ncc(Nc2cc(C(C)(C)CC(=O)O)ccc2N(CC)C2CCC(C)(O)CC2)cn1 (stereo not shown) [Example 3]  < 7.30
3  COCC(CC(=O)O)c1ccc(N(CC(C)C)C2CCCCC2)c(NC(=O)Nc2cc(C)on2)c1 (single isomer, unassigned) [987-1]  > 7.30
4  COCC(CC(=O)O)c1cc(F)c(N(CC(C)C)C2CCCCC2)c(NC(=O)Nc2ccc(OC(F)(F)F)cc2)c1 (single isomer, unassigned) [Example 1163]  > 8.30

Every entry's value here was drawn from patent US9790169B2.
